B1: tRNA (parent)
chain: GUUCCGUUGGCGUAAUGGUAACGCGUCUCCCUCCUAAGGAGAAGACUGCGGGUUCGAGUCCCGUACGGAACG

- Variants of: B1
- PROCEDURE TEXT: yeast fitness relative to wild type (ratio to wild type); higher = fitter; tRNA-Arg(CCU), competitive growth, 37 C, YPD
This sample holds only a part of the variants without activity.
RECORDED ENDPOINT: yeast fitness
Answer as a number with no unit attached.

U16G U26G A36G G68C	0.629
A45U C66A	0.649
U13G C33U G41C	0.581

# ---- query variant ----
What yeast fitness value was documented for this variant, U16A G41A A70U ?
0.666
